tested on: HL-60(TB) leukemia; test: NCI-60 one-dose screen, 48 h; settings: 10 µM unless noted
About 83,000 compounds went through this panel and 20% of them were active in at least one assay; those are over-represented in the sample as a whole. Activity calls are given as the source filed them. Rule for the calls: active = growth percent below 10; inactive = the rest.
Entry note: the call must match one of active, inactive

Cc1cc(NS(=O)(=O)c2ccc(NC(=O)CSc3nc4ccccc4c(=O)n3-c3ccccc3)cc2)no1 ... inactive

Attention now turns to another entry.
Incoming: Short answer needed: outcome of this test for O=C(Nc1cc(Cl)cc(Cl)c1)Nc1nc2ccc([N+](=O)[O-])cc2s1 ?
Outgoing: active

====

test system: NCI-H226 lung; test: NCI-60 one-dose screen, 48 h (100 = growth as untreated, 0 = no growth, -100 = all killed); conditions: 10 µM
About 83,000 compounds went through this panel and 20% of them were active in at least one assay; those are over-represented in the sample as a whole.
Consider the following molecules; for each one, report its growth.
Answers are plain numbers, in %.

I would be grateful if you could provide growth for each of the following entries.
1. CC1=C2C(=C[C@@](C)(C=O)[C@@H]2O)C(=O)[C@](C)(O)C12CC2
2. CC1=C(CCC=NNC(N)=O)C2=C(C)C3(CC3)[C@@](C)(O)C(=O)C2=C1
3. CC1=C(CN(O)C(N)=O)C2=C(C)C3(CC3)[C@](C)(O)C(=O)C2=C1
4. CC(C)=CCc1c2c(c(O)c3c1O[C@]14C(=C[C@@H]5C[C@H]1C(C)(C)O[C@@]4(C/C=C(/C)C(=O)O)C5=O)C3=O)C=CC(C)(C)O2
5. COc1cc2c(cc1OC)[C@@H]1N(CC2)C(=O)c2ccccc2[C@@]1(C)C(=O)O
6. Cc1ccc(CNc2nc3ccc(OC/C(=C/F)CN)cc3o2)cn1
7. CC1=C2C(=O)[C@](C)(CO)C=C2C(=O)[C@](C)(O)C12CC2

Outgoing:
46.1
-41.6
105
-2.64
111
90.3
74.7

Each recorded value in this set is attributed to PubChem BioAssay (NCI).
